Collected growth values appear next to each entry.
- Test system: A549/ATCC NSCLC
- protocol notes: NCI-60 one-dose screen, 48 h (100 = growth as untreated, 0 = no growth, -100 = all killed)
- condition details: 10 µM
- Method: Growth inhibition of the A549/ATCC human Non-Small Cell Lung tumor cell line is measured as a screen for anti-cancer activity. Cells are grown in 96 well plates and exposed to the test compound for 48 hours. Compounds are tested at a single concentration, which is 10^-5 M for most compounds. The reported endpoint is percent growth (GI% or GIPRCNT), where numbers from 0 - 100% represent growth inhibition, and numbers from -100% - 0 represent cell death. […]
The panel holds about 83,000 compounds, 20% with a hit somewhere; the sample as a whole holds those more often. Calls of active or inactive are those of the source. Rule for the calls: active = growth percent below 10; inactive = the rest.
measure: growth

INSERT INTO measurements (smiles_input, recorded_measurement) VALUES
  ('CC(=O)Nc1cccc(Cl)c1C', '88.2% (inactive)'),
  ('Cc1ccc(/C=C2\SC(=S)N(c3ccc(F)cc3)C2=O)o1', '87.5% (inactive)'),
  ('O=C(O)COCC(=O)O', '91.6% (inactive)'),
  ('CCC/C=C(/C(C)=O)C(=O)OCC', '90.8% (inactive)');

====

Collected growth values appear next to each entry.
- Test system: BT-549 breast
- protocol notes: NCI-60 one-dose screen, 48 h (100 = growth as untreated, 0 = no growth, -100 = all killed)
- condition details: 10 µM
This is part of a sample that, as a whole, favours compounds with a hit. Of some 83,000 tested, about 20% had one in any assay.
measure: growth (%)

INSERT INTO measurements (molecule, measure, quantity_unit, recorded_measurement) VALUES
  ('CC(C)NC(=O)OCc1c(COC(=O)NC(C)C)c(-c2ccc(Cl)c(Cl)c2)n2c1SCC2', 'growth', '%', 21.7),
  ('CSc1[nH]c(=O)ncc1F', 'growth', '%', 94.1),
  ('CC1C(=O)c2ccccc2CC1C(=O)O (centres undefined)', 'growth', '%', 105),
  ('CCCOC(=O)C(O)c1ccccc1 (centres undefined)', 'growth', '%', 103),
  ('Nc1ccc(N=Nc2ccc(S(=O)(=O)O)cc2)c2ccccc12', 'growth', '%', 102),
  ('O/N=C/c1ccc(O)cc1O', 'growth', '%', 103),
  ('CC(C)=C(NC(=O)c1ccccc1)C(=O)O', 'growth', '%', 110),
  ('COc1nc(N)nc2c1ncn2C1OC(CO)CC1O (centres undefined)', 'growth', '%', 94.3),
  ('COc1cc(/C=C/C(=O)c2ccccc2)cc(OC)c1OC', 'growth', '%', 72),
  ('CC1=CC(=O)c2ccccc2C1=O', 'growth', '%', 116),
  ('CN1C(=O)CN2CCc3ccccc3C2c2cc(Cl)ccc21 (centres undefined)', 'growth', '%', 99.7),
  ('CC(=O)N(C)c1ccc([N+](=O)[O-])cc1', 'growth', '%', 97.4),
  ('CC(=O)c1c[nH]c2ccccc12', 'growth', '%', 104),
  ('COc1cc(CN)ccc1O', 'growth', '%', 95),
  ('N/N=C(/Cc1ccccc1)NNC(N)=S', 'growth', '%', 75.7),
  ('C#CCSc1nnnn1-c1ccc(Br)c(C)c1', 'growth', '%', 103),
  ('O=C(CCl)N1CCN(C/C=C/c2ccccc2)CC1', 'growth', '%', 94),
  ('CCOC(=O)C(CCC(C)C)C(=O)OCC', 'growth', '%', 104),
  ('COc1ccccc1N=Nc1c(O)ccc2cc(S(=O)(=O)O)ccc12', 'growth', '%', 99.4);
